- Test description: viability gain of MRP-1-high H69AR cells under doxorubicin, pilot screen, MRP-1 activator project, CellTiter-Glo, duplicate (AID 807);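 also: compound pretreatment 18-22 h then 72 h combined with doxorubicin; 0% = doxorubicin alone and 100% = vehicle without doxorubicin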
- Test parameters: H69AR viability with doxorubicin, CellTiter-Glo luminescence; at 10 µM; stronger effect = higher value
# Lookup of reported viability increase keyed by entry
State just the number; it will be interpreted in %.

In the examples that follow, each entry is paired with its recorded viability increase.
Ask | Item CC1CC(C)CN(C(=O)C(NS(=O)(=O)c2ccc3c(c2)oc(=O)n3C)C(C)C)C1 (configuration not stated) : provide viability increase
Reply | -2.67

Ask | Item Cn1c(C(=O)N2CCCC2)cc2c(=O)n(C)c3ccccc3c21 : provide viability increase
Reply | -3.32

Ask | Item Cc1ccc(-c2nc(CS(=O)CC(=O)N3CCN(c4ncccn4)CC3)c(C)o2)cc1 (configuration not stated) : provide viability increase
Reply | -2.28

Ask | Item O=C(Nc1ccc2c(c1)OCCO2)c1ccc(NC(=O)C2CCCO2)cc1 (configuration not stated) : provide viability increase
Reply | -0.87

Ask | Item CC1CN(c2ncnc3c2cnn3-c2ccc(Cl)cc2)CC(C)O1 (configuration not stated) : provide viability increase
Reply | 3.8

---
Ask | Item CCOC(=O)N1CCN(C(=O)C2CC(c3ccc(F)cc3)=NO2)CC1 (configuration not stated) : provide viability increase
Reply | 1.33

Ask | Item COc1ccc(C2OC(=O)CC2C(=O)N2CCN(c3cc(Cl)ccc3C)CC2)cc1OC (configuration not stated) : provide viability increase
Reply | -2.26

Ask | Item CC(C)Cc1cc(C(=O)Nc2cc(Cl)ccc2Cl)no1 : provide viability increase
Reply | -2.35

Ask | Item CC1(C)Cc2nc3sc4c(=O)n(CC(=O)NCc5ccco5)cnc4c3cc2CO1 : provide viability increase
Reply | -5.22

* * *

- Test description: reducers of endogenous Her2 protein level, primary screen, SKBR3 breast tumor cells, AlphaScreen, ATP viability (AID 461);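 also: percent of carrier control wells set as 100% viability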
- Test parameters: 18-24 h, measured here: SKBR3 viability, ATP luminescence, at 10 µM
Property measured: viability (%)
State just the number; it will be interpreted in %.

Ask | Item Cc1cccc(-n2c(O)c(C=Nc3ccccc3N)c(=O)[nH]c2=O)c1 : provide viability
Reply | 108

Ask | Item COc1ccc2cc([C@H](C)C(=O)O)ccc2c1 : provide viability
Reply | 93.5

Ask | Item Cc1ccc(CN2C(=O)CCC2C(=O)NCC2CCCO2)cc1 (configuration not stated) : provide viability
Reply | 90

---
Ask | Item O=C(CSc1ncnc2c1cnn2Cc1ccccc1)Nc1ccc2c(c1)OCCO2 : provide viability
Reply | 109

Ask | Item Cc1cc(C(=O)NCc2ccc(S(N)(=O)=O)cc2)cs1 : provide viability
Reply | 84.5

Ask | Item COc1cc(S(=O)(=O)NC2CCCCC2)ccc1Cl : provide viability
Reply | 94.5

* * *

- Test description: OD615 S. cerevisiae growth inhibition, permissive medium, pilot counter-assay, permissive growth control for S. cerevisiae lifespan shortening project (AID 705)
- Test parameters: OD615, 24 h, at 10 µM
Active and inactive are the calls of the source.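 The calls were made as follows: active = growth inhibition above 25% in both replicates, a cutoff set 3 SD above the mean; inconclusive = above 25% in only one replicate; inactive = the rest.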
Give your call using only these classes: True (active), False (inactive)

Ask | Given Cc1ccc(-c2nc(C3CCCN(S(=O)(=O)c4ccc(C)cc4)C3)no2)cc1 (stereo not given) , state the outcome it received in this test.
Reply | False

---
Ask | Given CCOC(=O)c1ccc(Nc2cc(C)nc(-c3ccccc3O)n2)cc1 , state the outcome it received in this test.
Reply | False

Ask | Given C=C(C)Cn1c(CNC(C)=O)nc2ccccc21 , state the outcome it received in this test.
Reply | False

Ask | Given Cc1ccnc(Nc2nc3ccccc3o2)n1 , state the outcome it received in this test.
Reply | False

Ask | Given O=C(OCCN1C(=O)c2ccccc2C1=O)c1cc2ccccc2o1 , state the outcome it received in this test.
Reply | False

Ask | Given O=C(c1ccsc1)N1CCN(C(=O)c2cccs2)CC1 , state the outcome it received in this test.
Reply | False

Ask | Given Cc1oc(-c2cccc(Cl)c2)nc1CN1CCC(C(=O)N2CCN(c3ccccn3)CC2)CC1 , state the outcome it received in this test.
Reply | False

Ask | Given Cc1nc2ccc3nc(NC(=O)C4COc5ccccc5O4)sc3c2s1 (stereo not given) , state the outcome it received in this test.
Reply | False

Ask | Given COc1ccccc1-c1nc2n(n1)C(c1ccccc1Cl)C(C(N)=O)=C(C)N2 (stereo not given) , state the outcome it received in this test.
Reply | False

Ask | Given CCOC(=O)c1cc2c(=O)n3ccccc3nc2n(CCOC)c1=NC(=O)c1ccncc1 , state the outcome it received in this test.
Reply | False

Ask | Given COc1ccc(C2CCCN2C(=O)Nc2ccc(F)cc2)cc1OC (stereo not given) , state the outcome it received in this test.
Reply | False

Ask | Given O=C1CC(N2CCN(c3nc4ccccc4s3)CC2)C(=O)N1c1ccc(F)cc1 (stereo not given) , state the outcome it received in this test.
Reply | False

Ask | Given COc1ccc(C(=O)/C(C)=N/O)cc1OC , state the outcome it received in this test.
Reply | False
